Reported pKi values follow for various compounds
# SUBJECT_OF_TEST: human factor Xa (Homo sapiens)
# Sequence (P00742 235-488 limits assumed): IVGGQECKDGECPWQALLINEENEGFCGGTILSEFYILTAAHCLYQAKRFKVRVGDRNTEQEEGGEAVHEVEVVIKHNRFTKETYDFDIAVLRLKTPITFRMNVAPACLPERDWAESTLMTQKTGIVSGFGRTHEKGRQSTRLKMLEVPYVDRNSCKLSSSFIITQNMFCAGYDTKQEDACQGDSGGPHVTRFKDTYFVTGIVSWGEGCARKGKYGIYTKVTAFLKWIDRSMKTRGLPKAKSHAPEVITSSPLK
# Sequence (P00742 41-179 partner limits assumed): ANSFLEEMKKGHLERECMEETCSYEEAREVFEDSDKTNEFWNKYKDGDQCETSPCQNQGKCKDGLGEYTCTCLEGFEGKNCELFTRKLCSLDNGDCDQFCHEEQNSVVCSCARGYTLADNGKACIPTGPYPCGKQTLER
pKi is defined as minus the log10 of a concentration measured in mol/L.

Sample answers from the record:
COMPOUND: CC(C)N1CCC(NC(=O)c2cc(C(=O)NCCS(N)(=O)=O)nn2Cc2cc(-c3ccc(Cl)s3)on2)CC1 [Example 44]
pKi: 7.34
//
COMPOUND: CC(C)N1CCC(NC(=O)c2cc(C(=O)N(C)CC(=O)O)nn2Cc2cc(-c3ccc(Cl)s3)on2)CC1 [Example 33]
pKi: 7.09
//
COMPOUND: CC(C)N1CCC(NC(=O)c2cc(C(=O)NCCS(N)(=O)=O)n(Cc3cc(-c4ccc(Cl)s4)on3)n2)CC1 [Example 87]
pKi: 6.74
//
COMPOUND: CC(C)N1CCC(NC(=O)c2cc(-c3ccco3)n(Cc3cc(-c4ccc(Cl)s4)on3)n2)CC1 [Example 84]
pKi: 7.38
//
COMPOUND: CC(C)N1CCC(NC(=O)c2cc(C(=O)NCC(N)=O)nn2Cc2cc(-c3ccc(Cl)s3)on2)CC1 [Example 60]
pKi: 7.25

Input: What measured pKi goes with CC(C)N1CCC(NC(=O)c2cc(C(=O)N3CCOCC3)nn2Cc2cc(-c3ccc(Cl)s3)on2)CC1 [Example 25] ?
Output: 7.02

Input: Can you handle CC(C)N1CCC(NC(=O)c2cc(C(=O)N3CCOC3=O)nn2Cc2cc(-c3ccc(Cl)s3)on2)CC1 [Example 72] next?
Output: 7.04

Input: Can you handle CC(C)N1CCC(NC(=O)c2cc(C(=O)NCCN3CCNC3=O)nn2Cc2cc(-c3ccc(Cl)s3)on2)CC1 [Example 73] next?
Output: 7.08

Input: Can you handle CNC(=O)c1cc(C(=O)NC2CCN(C(C)C)CC2)n(Cc2cc(-c3ccc(Cl)s3)on2)n1 [Example 26] next?
Output: 7.17

Input: Can you handle CC(C)N1CCC(NC(=O)c2cc(C(=O)N3CCCC3)nn2Cc2cc(-c3ccc(Cl)s3)on2)CC1 [Example 48] next?
Output: 6.74
